Tested on: HBV DNA replication in HepAD38 cells
method_notes: Inhibition of intracellular HBV DNA replication in HepAD38 cells (PCR)
Format: cell-based
condition_details: Hepatitis B virus, HePAD38, read-out: IC50 for Compound II, AD38 cells; Compound I 320 nM

{"columns": ["molecule", "result_unit", "IC50"],
 "data": [
  ["CCCCCCCCCCCCCCCCOCCCOP(=O)(O)CO[C@H](C)Cn1cnc2c(N)ncnc21 [Compound II]", "nM", 99.7]
]}

====

Tested on: HBV DNA replication in DE19 cells
method_notes: Inhibition of intracellular HBV DNA replication in HepDE19 cells (PCR)
Type: cell-based
condition_details: Hepatitis B virus, HepDE19, read-out: IC50 for Compound II, DE19 cells; Compound I 10 nM
Experimental: The antiviral activity of Compound I and Compound II towards HBV was tested in various cell lines (HepAD38, HepDE19 and HepDES19). […] HBV replication was quantified by measuring the amount of HBV DNA in the cells. Compound I and Compound II were applied to induced cells (i.e., cells without tetracycline), either alone or in combination at various concentrations. Next, intracellular DNA was isolated and HBV DNA was measured by polymerase chain reaction (PCR). […]

{"columns": ["compound", "IC50 [nM]"],
 "data": [
  ["CCCCCCCCCCCCCCCCOCCCOP(=O)(O)CO[C@H](C)Cn1cnc2c(N)ncnc21 [Compound II]", 255]
]}

====

Tested on: HBV DNA replication in DE19 cells
method_notes: Inhibition of intracellular HBV DNA replication in HepDE19 cells (PCR)
Type: cell-based
condition_details: Hepatitis B virus, HepDE19, read-out: IC50 for Compound II, DE19 cells; Compound I 5 nM
pIC50: −log10 of the molar value.

{"columns": ["molecular_string", "pIC50"],
 "data": [
  ["CCCCCCCCCCCCCCCCOCCCOP(=O)(O)CO[C@H](C)Cn1cnc2c(N)ncnc21", 6.57]
]}

====

Tested on: HBV DNA replication in DES19 cells
method_notes: Inhibition of intracellular HBV DNA replication in HepDES19 cells (PCR)
Assay type: cell-based
condition_details: Hepatitis B virus, HepDES19, read-out: IC50 for Compound II, DES19 cells; Compound I 5 nM

{"columns": ["molecular_string", "result_unit", "IC50"],
 "data": [
  ["CCCCCCCCCCCCCCCCOCCCOP(=O)(O)CO[C@H](C)Cn1cnc2c(N)ncnc21", "nM", 237]
]}
